Biological target: ATP-dependent translocase ABCB1 (Homo sapiens, UniProt P08183)
Sequence (P08183 whole entry): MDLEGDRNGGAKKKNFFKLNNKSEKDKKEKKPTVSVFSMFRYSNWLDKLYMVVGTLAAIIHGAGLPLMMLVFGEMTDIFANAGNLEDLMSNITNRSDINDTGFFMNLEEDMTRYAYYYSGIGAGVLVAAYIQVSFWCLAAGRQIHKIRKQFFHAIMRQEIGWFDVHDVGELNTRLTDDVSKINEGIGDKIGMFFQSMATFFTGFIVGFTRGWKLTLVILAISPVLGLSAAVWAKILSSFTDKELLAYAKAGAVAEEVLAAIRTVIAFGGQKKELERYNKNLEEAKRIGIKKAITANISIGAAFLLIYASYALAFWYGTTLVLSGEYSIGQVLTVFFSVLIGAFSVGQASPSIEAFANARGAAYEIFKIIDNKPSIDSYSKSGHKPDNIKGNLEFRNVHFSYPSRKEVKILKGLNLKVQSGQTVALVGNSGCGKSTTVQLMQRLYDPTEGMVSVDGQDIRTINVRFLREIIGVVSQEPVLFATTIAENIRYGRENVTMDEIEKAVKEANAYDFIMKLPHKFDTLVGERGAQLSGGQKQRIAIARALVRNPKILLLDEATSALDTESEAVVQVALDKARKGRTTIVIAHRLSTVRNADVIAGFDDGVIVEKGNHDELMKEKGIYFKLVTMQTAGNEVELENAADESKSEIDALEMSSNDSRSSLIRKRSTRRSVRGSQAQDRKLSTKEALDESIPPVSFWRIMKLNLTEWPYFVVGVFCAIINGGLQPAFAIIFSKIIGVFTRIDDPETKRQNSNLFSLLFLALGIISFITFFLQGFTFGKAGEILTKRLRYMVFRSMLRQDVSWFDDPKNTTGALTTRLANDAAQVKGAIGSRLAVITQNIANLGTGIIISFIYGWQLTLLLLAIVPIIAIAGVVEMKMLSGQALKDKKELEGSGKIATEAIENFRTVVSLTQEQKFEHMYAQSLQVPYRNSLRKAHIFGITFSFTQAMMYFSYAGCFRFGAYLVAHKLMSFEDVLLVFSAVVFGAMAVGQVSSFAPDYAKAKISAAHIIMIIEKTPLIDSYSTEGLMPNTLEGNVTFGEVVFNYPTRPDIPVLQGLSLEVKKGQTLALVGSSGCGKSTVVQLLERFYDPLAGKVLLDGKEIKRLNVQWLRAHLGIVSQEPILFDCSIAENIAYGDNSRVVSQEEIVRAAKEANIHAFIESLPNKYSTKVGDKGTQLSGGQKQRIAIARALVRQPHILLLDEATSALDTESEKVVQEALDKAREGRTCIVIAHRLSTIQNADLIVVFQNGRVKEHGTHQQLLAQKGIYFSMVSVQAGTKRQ
Assay: High affinity constant at binding site of human P-Glycoprotein (P-gp) in two-affinity model
EXPERIMENTAL ENDPOINT: Ki (nM)

>>> recorded_number("COC(=O)c1ccccc1-c1c2ccc(=N)cc-2oc2cc(N)ccc12")
100

----------
Target: ATP-dependent translocase ABCB1 (Homo sapiens, UniProt P08183)
Assay: Concentration required for 50% inhibition at binding site of human P-Glycoprotein (P-gp) in one-affinity model
For each record, check the reported IC50: if it is below 90 µM write Yes, else write No.

>>> group_label("COC(=O)c1ccccc1-c1c2ccc(=N)cc-2oc2cc(N)ccc12")
"Yes"
>>> group_label("COc1ccc2[nH]c([S+]([O-])Cc3ncc(C)c(OC)c3C)nc2c1 (stereo in doubt; form 2) [OMEPRAZOLE]")
"No"
>>> group_label("COc1ccc(CCNCCCC(C#N)(c2ccc(OC)c(OC)c2)C(C)C)cc1OC (racemic)")
"Yes"
